The reader will find reported ASMS ratio (%) values listed item by item below.
# tgt: Bcl-2 protein (Recombinant Human Bcl-2 Protein) (Homo sapiens, UniProt P10415)
# Construct: purchased Novus NBP2-34889
# Sequence (P10415 whole entry): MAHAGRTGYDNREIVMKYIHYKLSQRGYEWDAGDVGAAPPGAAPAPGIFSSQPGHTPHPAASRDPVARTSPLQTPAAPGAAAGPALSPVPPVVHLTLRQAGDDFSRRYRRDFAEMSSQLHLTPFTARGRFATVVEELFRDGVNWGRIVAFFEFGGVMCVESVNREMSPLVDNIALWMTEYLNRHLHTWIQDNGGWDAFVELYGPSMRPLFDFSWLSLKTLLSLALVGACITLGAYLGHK
# test: Binding evaluation of mixture library compounds to Bcl-2 using AS-MS (affinity selection mass spectrometry)
# details: n = 1
Unit % implied. Number only.

Would you please look over these solved cases?
| molecule | test result |
| --- | --- |
| CCOc1cccc(-c2cc(CN3CCN(c4ccc(C(=O)NS(=O)(=O)c5ccc(NCCSc6ccccc6)c(C(F)(F)F)c5)nn4)CC3)cc(OC(F)(F)F)c2)c1 [B2R089-01] | 3.4 |
| CCOc1cccc(-c2ccc(CN3CCN(c4ccc(C(=O)NS(C)(=O)=O)nn4)CC3)c(OC)c2)c1 [B2I079-01] | 0.0 |

Enquiry: I would be grateful if you could share the reported ASMS ratio (%) for CCOc1cncc(-c2ccc(CN3CCN(c4ccc(C(=O)NS(=O)(=O)CCC(F)(F)F)nn4)CC3)c(OC)c2)c1 [B2N080-01] .
Return: 0.0

Enquiry: I would be grateful if you could share the reported ASMS ratio (%) for CCOc1cncc(-c2cc(C(=O)N3CCN(c4ccc(C(=O)NS(=O)(=O)CCC(F)(F)F)cc4)CC3)cc(C(F)(F)F)c2)c1 [B2N040-01] .
Return: 0.0

Enquiry: I would be grateful if you could share the reported ASMS ratio (%) for CCOc1cccc(-c2cnn(-c3cc(C(=O)N4CCN(c5ccc(C(=O)NS(=O)(=O)CCC(F)(F)F)cc5)CC4)cc(C(F)(F)F)c3)c2)c1 [B2N043-01] .
Return: −1.4

====

# tgt: Bcl-2 protein (Recombinant Human Bcl-2 Protein) (Homo sapiens, UniProt P10415)
# Construct: purchased Novus NBP2-34889
# test: Binding evaluation of mixture library compounds to Bcl-2 using AS-MS (affinity selection mass spectrometry)
# details: AS-MS, mixture of 1200 compounds, Bcl-2; ASMS Ratio(%)=(A−C)/B×100; replicate n = 2
assay readout: ASMS ratio (%) n = 2
Unit % implied. Number only.

| compound | ASMS ratio (%) n = 2 |
| --- | --- |
| CCOc1cccc(C#Cc2ccccc2C(=O)N2CCN(c3ccc(C(=O)NCC45CC6CC(CC(C6)C4)C5)cc3)CC2)c1 | −13.0 |
| CCOc1cccc(C#Cc2ccccc2C(=O)N2CCN(c3ccc(C(=O)NCC(F)(F)F)nn3)CC2)c1 | 1.3 |
| CCCNC(=O)c1ccc(N2CCN(Cc3ccccc3C#Cc3cccc(OCC)c3)CC2)cc1 | 20.2 |
| CCOc1cncc(-c2cc(C(=O)N3CCN(c4ccc(C(=O)NCC56CC7CC(CC(C7)C5)C6)cc4)CC3)cc(C(F)(F)F)c2)c1 | 8.4 |

Enquiry: I would be grateful if you could share the reported ASMS ratio (%) n = 2 for CCOc1cncc(-c2csc(C(=O)N3CCN(c4ccc(C(=O)NCC(F)(F)F)nn4)CC3)c2)c1 .
Return: 0.0

Enquiry: I would be grateful if you could share the reported ASMS ratio (%) n = 2 for CCOc1cccc(-c2ccc(C(C)N3CCN(c4ccc(C(=O)NCC56CC7CC(CC(C7)C5)C6)cc4)CC3)cc2)c1 (stereo not shown) .
Return: 2.5

Enquiry: I would be grateful if you could share the reported ASMS ratio (%) n = 2 for CCOc1cncc(-c2cc(CN3CCN(c4ccc(C(=O)NCC56CC7CC(CC(C7)C5)C6)cc4)CC3)cc(OC(F)(F)F)c2)c1 .
Return: −1.6

====

The reader will find reported ASMS ratio (%) n = 2 values listed item by item below.
# tgt: Bcl-2 protein (Recombinant Human Bcl-2 Protein) (Homo sapiens, UniProt P10415)
# Construct: purchased Novus NBP2-34889
# test: Binding evaluation of mixture library compounds to Bcl-2 using AS-MS (affinity selection mass spectrometry)
# details: AS-MS, mixture library, Bcl-2; replicate n = 2; ASMS Ratio(%)=(A−C)/B×100

Would you please look over these solved cases?
| compound | ASMS ratio (%) n = 2 |
| --- | --- |
| CCOc1cncc(-c2ccc(C(C)N3CCN(c4ccc(C(=O)NS(=O)(=O)CC56CC7CC(CC(C7)C5)C6)cc4)CC3)cc2)c1 (centres unmarked) | 2.1% |
| CCOc1cncc(-c2cc(CN3CCN(c4ccc(C(=O)NS(=O)(=O)CC56CC7CC(CC(C7)C5)C6)cc4)CC3)cc(C(F)(F)F)c2)c1 | 3.6% |
| CCOc1cncc(C#Cc2cc(C(=O)N3CCN(c4ccc(C(=O)NS(=O)(=O)c5ccc(NCCSc6ccccc6)c([N+](=O)[O-])c5)cc4)CC3)cc(C(F)(F)F)c2)c1 | 19.5% |
| CCOc1cccc(C#Cc2ccccc2C(=O)N2CCN(c3ccc(C(=O)NS(C)(=O)=O)cc3)CC2)c1 | 0.0% |
| CCOc1cccc(-c2cc(C(=O)N3CCN(c4ccc(C(=O)NS(=O)(=O)c5ccc(NCCSc6ccccc6)c([N+](=O)[O-])c5)nn4)CC3)cc(C(C)(C)C)c2)c1 | 13.2% |

Enquiry: I would be grateful if you could share the reported ASMS ratio (%) n = 2 for CCOc1cncc(-c2csc(C(=O)N3CCN(c4ccc(C(=O)NS(=O)(=O)CC56CC7CC(CC(C7)C5)C6)nn4)CC3)c2)c1 .
Return: 0.0%

Enquiry: I would be grateful if you could share the reported ASMS ratio (%) n = 2 for CCOc1cncc(-c2ccc(CN3CCN(c4ccc(C(=O)NS(=O)(=O)CC56CC7CC(CC(C7)C5)C6)cc4)CC3)c(OC)c2)c1 .
Return: −0.9%

Enquiry: I would be grateful if you could share the reported ASMS ratio (%) n = 2 for CCOc1cccc(-c2cnn(-c3cc(C(=O)N4CCN(c5ccc(C(=O)NS(=O)(=O)CC67CC8CC(CC(C8)C6)C7)cc5)CC4)cc(C(F)(F)F)c3)c2)c1 .
Return: 4.4%

Enquiry: I would be grateful if you could share the reported ASMS ratio (%) n = 2 for CCOc1cccc(-c2cc(OC)c(CN3CCN(c4ccc(C(=O)NS(=O)(=O)c5ccc(NCCSc6ccccc6)c([N+](=O)[O-])c5)cc4)CC3)c(OC)c2)c1 .
Return: 7.0%

Enquiry: I would be grateful if you could share the reported ASMS ratio (%) n = 2 for CCOc1cccc(-c2cc(CN3CCN(c4ccc(C(=O)NS(=O)(=O)c5ccc(NCCSc6ccccc6)c([N+](=O)[O-])c5)cc4)CC3)cc(OC(C)C)c2)c1 .
Return: 4.4%

====

# tgt: Bcl-2 protein (Recombinant Human Bcl-2 Protein) (Homo sapiens, UniProt P10415)
# Construct: purchased Novus NBP2-34889
# test: Binding evaluation of mixture library compounds to Bcl-2 using AS-MS (affinity selection mass spectrometry)
# details: AS-MS on the mixture of 1200 library compounds; ASMS Ratio(%)=(A−C)/B×100; replicate n = 1
assay readout: ASMS ratio (%) n = 1
Unit % implied. Number only.

Would you please look over these solved cases?
| compound | assay readout | test result |
| --- | --- | --- |
| CCOc1cncc(-c2csc(C(=O)N3CCN(c4ccc(C(=O)Nc5ccc(OC)cc5)nn4)CC3)c2)c1 | ASMS ratio (%) n = 1 | 2.2 |
| CCOc1cncc(-c2ccc(C(=O)N3CCN(c4ccc(C(=O)N(C)CC56CC7CC(CC(C7)C5)C6)nn4)CC3)cc2C)c1 | ASMS ratio (%) n = 1 | 3.5 |
| CCOc1cncc(-c2cc(C(=O)N3CCN(c4ccc(C(=O)N(C)CC56CC7CC(CC(C7)C5)C6)cc4)CC3)cc(C(C)(C)C)c2)c1 | ASMS ratio (%) n = 1 | 2.5 |
| CCOc1cncc(C#Cc2ccccc2CN2CCN(c3ccc(C(=O)N(C)CC45CC6CC(CC(C6)C4)C5)cc3)CC2)c1 | ASMS ratio (%) n = 1 | 7.7 |
| CCOc1cncc(-c2ccc(C(=O)N3CCN(c4ccc(C(=O)N(CC)CC)cc4)CC3)cc2C)c1 | ASMS ratio (%) n = 1 | −3.6 |
| CCOc1cncc(-c2cnn(-c3cc(C(=O)N4CCN(c5ccc(C(=O)N(CC)CC)cc5)CC4)cc(C(F)(F)F)c3)c2)c1 | ASMS ratio (%) n = 1 | 1.8 |
| CCOc1cccc(-c2cc(CN3CCN(c4ccc(C(=O)Nc5ccc(OC)cc5)nn4)CC3)cc(OC(F)(F)F)c2)c1 | ASMS ratio (%) n = 1 | 3.8 |
| CCOc1cccc(C#Cc2ccccc2C(=O)N2CCN(c3ccc(C(=O)N(CC)CC)nn3)CC2)c1 | ASMS ratio (%) n = 1 | −1.0 |

Enquiry: I would be grateful if you could share the reported ASMS ratio (%) n = 1 for CCOc1cccc(-c2cc(CN3CCN(c4ccc(C(=O)Nc5ccc(OC)cc5)nn4)CC3)cc(OC(C)C)c2)c1 .
Return: 7.2

Provenance of the data: patent US20240132431A1
